These data points were gathered from ChEMBL document CHEMBL1156829.

tested on: Plasmodium falciparum; test: NOVARTIS: Inhibition of Plasmodium falciparum 3D7 (drug-susceptible) proliferation in erythrocyte-based infection assay; assay type: functional, organism-based; details: Plasmodium falciparum, 3D7
ASSAY METRIC: log10 EC50 (log10 of the value in nM)
Please note: log10 values; quantity EC50; unit nM.

Plasmodium falciparum assay, compound "COc1ccc(S(=O)(=O)NCCCCNc2ccnc3cc(Cl)ccc23)cc1" , recorded log10 EC50 = 2.54

Plasmodium falciparum assay, compound "CCc1ccc(Nc2cc(C)nc3nc(C)nn23)cc1" , recorded log10 EC50 = 2.76

Plasmodium falciparum assay, compound "O=C(Nc1ccc(C2=NCCN2)cc1)c1cc(Cl)c(C(=O)Nc2ccc(C3=NCCN3)cc2)cc1Cl" , recorded log10 EC50 = 1.82

Plasmodium falciparum assay, compound CCCCN(C(=O)Nc1ccc(OCC)cc1)C(C)c1nc2ccccc2c(=O)n1-c1ccc(F)c(Cl)c1 (stereo not given) , recorded log10 EC50 = 3.00

Plasmodium falciparum assay, compound "COc1ccc(Nc2nc3nonc3nc2NN=Cc2cc(Cl)ccc2O)cc1" , recorded log10 EC50 = 3.25

Plasmodium falciparum assay, compound CCCN(C(=O)Nc1c(C(C)C)cccc1C(C)C)C(CC)c1nc2ccccc2c(=O)n1-c1cccc(C)c1 (stereo not given) , recorded log10 EC50 = 3.50

Plasmodium falciparum assay, compound CCc1ccc(C(Nc2cc(C)ccn2)c2ccc3cccnc3c2O)cc1 (stereo not given) , recorded log10 EC50 = 3.17

Plasmodium falciparum assay, compound CC(C)CNC(=O)c1cnc(NCCCN2CCCCC2C)nc1NCCc1ccccc1 (stereo not given) , recorded log10 EC50 = 2.57

Plasmodium falciparum assay, compound "COc1ccc(C[n+]2cc(-c3ccc(Cl)cc3)n3ccccc32)cc1" , recorded log10 EC50 = 2.62

Plasmodium falciparum assay, compound "COCOc1ccc(-c2nc(-c3ccncc3)cnc2N)cc1" , recorded log10 EC50 = 3.16

Plasmodium falciparum assay, compound "O=C(CSc1ccc2nnc(-c3cccs3)n2n1)Nc1ccc2c(c1)OCCO2" , recorded log10 EC50 = 2.65

Plasmodium falciparum assay, compound "Oc1ccc(-c2nc3ccccc3s2)cc1CN1CCCCC1" , recorded log10 EC50 = 3.06

Plasmodium falciparum assay, compound CCN1C(=O)NC(c2cccc(NC(=O)Nc3cc(C(F)(F)F)cc(C(F)(F)F)c3)c2)C(C(=O)OC(C)C)=C1C (stereo not given) , recorded log10 EC50 = 3.93

Plasmodium falciparum assay, compound "C[C@@H]1CC[C@H]2[C@@H](C)C(=O)O[C@@H]3O[C@@]4(C)CC[C@@H]1[C@]32OO4" , recorded log10 EC50 = 1.63

Plasmodium falciparum assay, compound "FC(F)(F)c1cccc(Nc2nc3nonc3nc2Nc2ccc(Br)cc2)c1" , recorded log10 EC50 = 3.88

Plasmodium falciparum assay, compound "CC(C)CNC(=O)c1cnc(NCCCN2CCCC2)nc1NC1CCCC1" , recorded log10 EC50 = 2.89

Plasmodium falciparum assay, compound "CCOc1ccc(Nc2nc(NCc3ccccc3)c3ccccc3n2)cc1" , recorded log10 EC50 = 1.95

----------
system: Plasmodium falciparum; experiment: NOVARTIS: Inhibition of Plasmodium falciparum 3D7 (drug-susceptible) proliferation in erythrocyte-based infection assay; assay type: functional, organism-based; details: Plasmodium falciparum, 3D7
ASSAY METRIC: pEC50
Reminder that pEC50 is minus the log10 of a molar concentration.

Form: compound = O=C(c1cc2cc(Br)ccc2o1)N1CCc2c([nH]c3ccccc23)C1c1ccc(Cl)cc1 (stereo unspecified) ; pEC50 = 6.05

Form: compound = "COc1ccccc1N1C(=N)S/C(=C/c2ccc(N(C)C)cc2)C1=O" ; pEC50 = 6.92

Form: compound = CCCCCCN(C(=O)c1cccc(OC)c1)C(CC)c1nc2ccccc2c(=O)n1-c1ccc(Cl)cc1C (stereo unspecified) ; pEC50 = 5.95

Form: compound = "O=C(c1ccc2ccccc2c1)N1CCc2ccccc21" ; pEC50 = 5.46

Form: compound = "CC(=O)N(C1=C(N2CCOCC2)C(=O)c2ccccc2C1=O)c1ccc(Cl)c(Cl)c1" ; pEC50 = 6.66

Form: compound = "CCOC(=O)c1c(NC(C)=O)sc2c(O)c(CNC3CCCCC3)ccc12" ; pEC50 = 7.09

Form: compound = COc1cccc(C(NC(=O)c2ccccc2)c2ccc3cccnc3c2O)c1 (stereo unspecified) ; pEC50 = 6.87

Form: compound = "Cc1cccc(N=C2NC(=O)/C(=C\c3ccc(N(C)C)cc3)S2)c1" ; pEC50 = 6.11

Form: compound = COc1ccc(C2CC(=O)C3=C(C2)NC(C)=C(C(=O)OC2CCCC2)C3c2ccccc2)cc1 (stereo unspecified) ; pEC50 = 6.91

Form: compound = "N=C1NC(=O)C(=CC=Cc2ccc([N+](=O)[O-])o2)S1" ; pEC50 = 6.15

Form: compound = C=CCOc1cccc(C(Nc2cccc(C)n2)c2ccc3cccnc3c2O)c1 (stereo unspecified) ; pEC50 = 5.24

Form: compound = "Cc1nc2ccccc2n1S(C)(=O)=O" ; pEC50 = 7.22

Form: compound = "C[n+]1cc(-c2ccc3cccc([N+](=O)[O-])c3n2)cc2ccccc21" ; pEC50 = 6.44

Form: compound = COc1cc(C2CC(=O)NC(C)=C2C(=O)OC(C)C)c(OC)cc1Br (stereo unspecified) ; pEC50 = 5.99

Form: compound = COc1ccc(CC(=O)N(CCCC(C)Nc2cc(OC)cc3cccnc23)Cc2ccc(OC)c(OC)c2)cc1 (stereo unspecified) ; pEC50 = 5.92

Form: compound = "COc1cc(/C=C/C(=O)Nc2ccc3nc(N4CCN(c5ncccn5)CC4)cc(C)c3c2)cc(OC)c1OC" ; pEC50 = 5.88

Form: compound = COC(=O)C1=C(C)NC2=C(C(=O)CC(c3ccccc3Cl)C2)C1c1ccc([N+](=O)[O-])cc1 (stereo unspecified) ; pEC50 = 6.94

Form: compound = "C=CCNC(=O)c1cc2c(=O)n3cccc(C)c3nc2n(CCc2ccccc2)c1=N" ; pEC50 = 6.15

Form: compound = "COc1ccc(-c2c[n+](CC(=O)c3ccc(Cl)cc3)c3n2CCC3)cc1" ; pEC50 = 6.19

Form: compound = "COc1cc2c(cc1OC)C(=NN=C1NC(C)(C)Cc3ccccc31)NC(C)(C)C2" ; pEC50 = 5.99

Form: compound = COc1ccc2c(c1)OC(O)(C(F)(F)C(F)(F)F)CC2=O (stereo unspecified) ; pEC50 = 6.35

Form: compound = "COc1ccc(Cl)cc1NC(=S)NNC(=O)c1cccnc1" ; pEC50 = 6.27

Form: compound = "O=C(Nc1cccc(-c2nc3ccccc3[nH]2)c1)c1cc(=O)c2ccccc2o1" ; pEC50 = 6.40

Form: compound = "Cc1ccc(S(=O)(=O)N=C2C=C(Sc3nc4ccccc4[nH]3)C(=O)c3ccccc32)cc1" ; pEC50 = 6.20

Form: compound = "COc1cc2nc(NCc3cccnc3)n3nc(-c4ccccc4)nc3c2cc1OC" ; pEC50 = 6.74

Form: compound = "COc1cc(/C=C2/SC(=Nc3ccccc3)NC2=O)ccc1OCc1ccccc1Cl" ; pEC50 = 6.02

Form: compound = CCc1n(CC(=O)OC2CC(C)CCC2C(C)C)c2ccccc2[n+]1C (stereo unspecified) ; pEC50 = 6.57

Form: compound = "O=C1c2ccccc2C(=O)c2c1ccc1nonc21" ; pEC50 = 6.92

Form: compound = O=C1CN(C(=O)CCC2CCCCC2)C(c2ccccc2)c2cc(F)ccc2N1 (stereo unspecified) ; pEC50 = 5.97

Form: compound = "COc1ccccc1N1CCN([C@@H]2CCN(Cc3cccnc3)C[C@@H]2CCC(=O)N2CCCC2)CC1" ; pEC50 = 5.96

Form: compound = "COc1cc(C=NNc2nc3cc(Cl)ccc3[nH]2)cc(OC)c1OC" ; pEC50 = 6.04
